# Test system: SNB-19 CNS
# Experimental Details: NCI-60 one-dose screen, 48 h
# Test Parameters: 10 µM unless noted
About 83,000 compounds went through this panel and 20% of them were active in at least one assay; those are over-represented in the sample as a whole. The source made the active and inactive calls. The calls were made as follows: active = growth percent below 10; inactive = the rest.
Returns: one label drawn from Yes for active, No for inactive

Req: State the result this test recorded for C[C@@H]1CC[C@@H]2[C@@H]1[C@H](OC(=O)/C=C/C1CCCCC1)[C@]1(C3CCCCC3)C[C@@H](OC(=O)CO)[C@@]2(C)O1 .
Resp: No

Req: State the result this test recorded for Cn1cnnc1[S-].[Au+].c1ccc([PH+](c2ccccc2)c2ccccc2)cc1 .
Resp: No

Req: State the result this test recorded for CCC1([N+](=O)[O-])COP(=O)(NCc2cccnc2)OC1 (stereo not given) .
Resp: No

Req: State the result this test recorded for OB([O][Hg][c]1ccccc1)[O][Hg][c]1ccccc1 .
Resp: Yes

Req: State the result this test recorded for c1ccc(CCN2CCCCC2Cc2ccccc2)cc1 (stereo not given) .
Resp: No

Req: State the result this test recorded for CC(=O)[O][Hg][c]1ccccc1 .
Resp: Yes

Req: State the result this test recorded for NC(=O)C(Br)CBr (stereo not given) .
Resp: No

Req: State the result this test recorded for CNc1ccc(C(=O)CC(O)CCC(C)C2OC(=O)CC(O)CC(=O)CC(O)CC(O)CC(O)CC(O)CC3(O)CC(O)C(C(=O)OC)C(CC(O[C@@H]4O[C@H](C)[C@@H](O)[C@H](N)[C@@H]4O)/C=C/C=C/C=C/C=C/C=C/C=C/C=C/C2C)O3)cc1 (stereo not given in full) .
Resp: No

Req: State the result this test recorded for CNC(=O)Oc1cccc(N(C)C)c1 .
Resp: No

Req: State the result this test recorded for N#Cc1ncc(/N=C/c2ccc(N(CCCl)CCCl)cc2)s1 .
Resp: No

The measurements presented in this section are drawn from PubChem BioAssay (NCI).
